Study target: T1, human GLP-1 receptor (human, UniProt P43220 24-463)
T1 construct: whole, on cells; also called hGLP-1R; human glucagon-like peptide-1 receptor
Assay protocol: SPA competition vs [125I]-GLP-1, hGLP-1R membranes
Reported endpoint: pKi
Remember the convention: pKi equals -log10 of concentration in molar.

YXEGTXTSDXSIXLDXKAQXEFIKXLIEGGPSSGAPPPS (Aib2, αMeF(2F)6, 4Pal10, αMeL13, Orn16, K17(Z1), Aib20, K24(Z1), αMeY25, C-term NH2; Z1=AEEA2-(γ-Glu)-CO-(CH2)12-CO2H) ... 8.85
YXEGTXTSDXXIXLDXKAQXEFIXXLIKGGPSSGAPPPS (Aib2, αMeF(2F)6, 4Pal10, Aib11, αMeL13, Orn16, K17(Z1), Aib20, D-Glu24 (printed e), αMeY25, K28(Z1), C-term NH2; Z1=AEEA-(γ-Glu)-(10-(4-carboxyphenoxy)decanoyl)) ... 8.91
YXEGTXTSDVXIXLDXKAQXEFIXXLIEGGKSSGAPPPS (Aib2, αMeF(2F)6, αMeS11, αMeL13, Orn16, K17(Z1), Aib20, D-Glu24, αMeY25, K31(Z1), C-term NH2; Z1=AEEA2-(γ-Glu)-CO-(CH2)12-CO2H) ... 8.93

Supply recorded pKi for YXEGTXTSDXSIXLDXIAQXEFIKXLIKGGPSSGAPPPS (Aib2, αMeF(2F)6, 4Pal10, αMeL13, Orn16, Aib20, K24(Z1), αMeY25, K28(Z1), C-term NH2; Z1=AEEA2-(γ-Glu)-CO-(CH2)12-CO2H) here.
8.78

Supply recorded pKi for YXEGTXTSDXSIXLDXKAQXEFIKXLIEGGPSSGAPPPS (Aib2, αMeF(2F)6, 4Pal10, αMeL13, Orn16, K17(Z1), Aib20, K24(Z1), αMeY25, C-term NH2; Z1=AEEA2-(γ-Glu)-(10-(4-carboxyphenoxy)decanoyl)) here.
9.11

Supply recorded pKi for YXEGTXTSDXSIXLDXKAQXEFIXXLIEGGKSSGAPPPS (Aib2, αMeF(2F)6, 4Pal10, αMeL13, Orn16, K17(Z1), Aib20, D-Glu24, αMeY25, K31(Z1), C-term NH2; Z1=AEEA2-(εK)-CO-(CH2)12-CO2H) here.
8.87

Supply recorded pKi for YXEGTXTSDXXIXLDXQAQXKFIXXLIKGGPSSGAPPPS (Aib2, αMeF(2F)6, 4Pal10, Aib11, αMeL13, Orn16, Aib20, K21(Z1), D-Glu24, αMeY25, K28(Z1), C-term NH2; Z1=AEEA2-(γ-Glu)-CO-(CH2)12-CO2H) here.
9.02

Supply recorded pKi for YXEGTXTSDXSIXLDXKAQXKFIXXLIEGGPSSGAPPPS (Aib2, αMeF(2F)6, 4Pal10, αMeL13, Orn16, K17(Z1), Aib20, K21(Z1), D-Glu24, αMeY25, C-term NH2; Z1=AEEA2-CO-(CH2)12-CO2H) here.
9.06

# credit: patent US20230265151A1
